src = the RNAGym collection of RNA variant scans (doi:10.1073/pnas.2313332121)

B1: TPR t1 (parent)
chain: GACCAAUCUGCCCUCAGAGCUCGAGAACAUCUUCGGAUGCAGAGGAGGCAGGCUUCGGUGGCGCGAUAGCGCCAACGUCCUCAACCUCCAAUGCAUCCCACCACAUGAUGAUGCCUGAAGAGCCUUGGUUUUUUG

Variants of: B1
assay_notes: polymerase ribozyme fitness, log enrichment relative to wild type (log ratio); higher = more active; in vitro selection for triplet polymerase activity
observable: polymerase ribozyme fitness (log ratio)
I'd appreciate a reply containing only the number, no unit.

[in] Assign polymerase ribozyme fitness (log ratio) to the following record: C82U A91U A100U
[out] -3.25

[in] Assign polymerase ribozyme fitness (log ratio) to the following record: G39U C53A C82A C124G
[out] 1.35

[in] Assign polymerase ribozyme fitness (log ratio) to the following record: C13A G110C
[out] -4.52

[in] Assign polymerase ribozyme fitness (log ratio) to the following record: G61U U109A
[out] -3.77

[in] Assign polymerase ribozyme fitness (log ratio) to the following record: `A100G`
[out] -2.32

[in] Assign polymerase ribozyme fitness (log ratio) to the following record: C11G C15U G45C
[out] -1.34

[in] Assign polymerase ribozyme fitness (log ratio) to the following record: A5C C53G U96A C123U
[out] -0.893

[in] Assign polymerase ribozyme fitness (log ratio) to the following record: U9A A24G G42A G52C C72G
[out] -3.17

[in] Assign polymerase ribozyme fitness (log ratio) to the following record: U78C C94U
[out] -0.58

[in] Assign polymerase ribozyme fitness (log ratio) to the following record: C12A C62U
[out] -0.927

[in] Assign polymerase ribozyme fitness (log ratio) to the following record: C13G G71U U112C
[out] -0.426
